# system: T1, human Y2 receptor (human, UniProt P49146 1-381)
# T1 sequence (looked up): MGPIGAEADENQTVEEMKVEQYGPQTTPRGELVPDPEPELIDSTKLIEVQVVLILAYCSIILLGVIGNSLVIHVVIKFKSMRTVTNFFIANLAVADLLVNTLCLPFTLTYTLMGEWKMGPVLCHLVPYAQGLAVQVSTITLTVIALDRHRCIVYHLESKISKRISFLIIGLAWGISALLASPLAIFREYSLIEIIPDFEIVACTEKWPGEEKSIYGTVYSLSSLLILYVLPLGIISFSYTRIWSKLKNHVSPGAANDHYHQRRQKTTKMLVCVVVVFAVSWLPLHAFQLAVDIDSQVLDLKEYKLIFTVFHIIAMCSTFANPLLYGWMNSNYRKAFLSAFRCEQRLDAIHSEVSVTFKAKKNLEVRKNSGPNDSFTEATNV
# procedure details: cell-based or functional assay
Non-standard residues stand in square brackets, D forms with d. No end group written: not given here. Phe(4-NH2) = Nc1ccc(C[C@H](N)C(=O)O)cc1; Phe(3-Me) = Cc1cccc(C[C@H](N)C(=O)O)c1; Tic = O=C(O)[C@@H]1Cc2ccccc2CN1; Cha = N[C@@H](CC1CCCCC1)C(=O)O; 4Amb = NCc1ccc(C(=O)O)cc1; Aib = CC(C)(N)C(=O)O
GBA EC50 Ratio (vs PYY(3-36)), [35S]GTPγS for assorted binders
# value in ratio; strip the unit string

Below are worked cases with known answers.
Ac-S[dP]RH[Cha][Cha]NL[Aib]TRQR[Phe(3-Me)]-NH2 (SMILES CC(=O)N[C@@H](CO)C(=O)N1CCC[C@@H]1C(=O)N[C@@H](CCCNC(=N)N)C(=O)N[C@@H](Cc1c[nH]cn1)C(=O)N[C@@H](CC1CCCCC1)C(=O)N[C@@H](CC1CCCCC1)C(=O)N[C@@H](CC(N)=O)C(=O)N[C@@H](CC(C)C)C(=O)NC(C)(C)C(=O)N[C@H](C(=O)N[C@@H](CCCNC(=N)N)C(=O)N[C@@H](CCC(N)=O)C(=O)N[C@@H](CCCNC(=N)N)C(=O)N[C@@H](Cc1cccc(C)c1)C(N)=O)[C@@H](C)O, also called compound No. 197) [Ac-[D-Pro24, Cha27,28, Aib31, Phe(3Me)36]-PYY(23-36)]: 1.9
[4Amb]RAYINLITRQR[Tic]-NH2 (N-terminus assumed; SMILES CC[C@H](C)[C@H](NC(=O)[C@H](Cc1ccc(O)cc1)NC(=O)[C@H](C)NC(=O)[C@H](CCCNC(=N)N)NC(=O)c1ccc(CN)cc1)C(=O)N[C@@H](CC(N)=O)C(=O)N[C@@H](CC(C)C)C(=O)N[C@H](C(=O)N[C@H](C(=O)N[C@@H](CCCNC(=N)N)C(=O)N[C@@H](CCC(N)=O)C(=O)N[C@@H](CCCNC(=N)N)C(=O)N1Cc2ccccc2C[C@H]1C(N)=O)[C@@H](C)O)[C@@H](C)CC, also called compound No. 17) [4-Aminomethylbenzoyl-[Ala26, Ile28,31, Tic36]-PYY(25-36)]: 66
[4Amb]RAYINLILRQRY-NH2 (N-terminus assumed; SMILES CC[C@H](C)[C@H](NC(=O)[C@H](Cc1ccc(O)cc1)NC(=O)[C@H](C)NC(=O)[C@H](CCCNC(=N)N)NC(=O)c1ccc(CN)cc1)C(=O)N[C@@H](CC(N)=O)C(=O)N[C@@H](CC(C)C)C(=O)N[C@H](C(=O)N[C@@H](CC(C)C)C(=O)N[C@@H](CCCNC(=N)N)C(=O)N[C@@H](CCC(N)=O)C(=O)N[C@@H](CCCNC(=N)N)C(=O)N[C@@H](Cc1ccc(O)cc1)C(N)=O)[C@@H](C)CC, also called compound No. 62) [4-Aminomethylbenzoyl-[Ala26, Ile28,31, Leu32]-PYY(25-36)]: 15

Then there is this binder:
### Prompt Which GBA EC50 Ratio (vs PYY(3-36)), [35S]GTPγS is reported for this binder? [4Amb]RAYINLITRQR[Phe(4-NH2)]-NH2 (N-terminus assumed; SMILES CC[C@H](C)[C@H](NC(=O)[C@H](Cc1ccc(O)cc1)NC(=O)[C@H](C)NC(=O)[C@H](CCCNC(=N)N)NC(=O)c1ccc(CN)cc1)C(=O)N[C@@H](CC(N)=O)C(=O)N[C@@H](CC(C)C)C(=O)N[C@H](C(=O)N[C@H](C(=O)N[C@@H](CCCNC(=N)N)C(=O)N[C@@H](CCC(N)=O)C(=O)N[C@@H](CCCNC(=N)N)C(=O)N[C@@H](Cc1ccc(N)cc1)C(N)=O)[C@@H](C)O)[C@@H](C)CC, also called compound No. 12) [4-Aminomethylbenzoyl-[Ala26, Ile28,31, Phe(4NH2)36]-PYY(25-36)]
### Response 5
